Quick reference: switch fluorescence ratio of the listed items.
# Tested on: ATP;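 note: ATP exposure 15 min at 22 °C before imaging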
# Test Details: switch fluorescence ratio, 500 uM ATP over buffer (Cy3 cluster intensity, sum of 5 cycles each) (fold (ratio)); higher = stronger signal-on switching upon ATP binding; sequences stand for … in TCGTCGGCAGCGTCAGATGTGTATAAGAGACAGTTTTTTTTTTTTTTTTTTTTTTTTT…TC
# Run Conditions: aptamer strand: ATP DNA aptamer (quencher-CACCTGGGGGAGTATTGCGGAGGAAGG + anchor), 100 nM annealed; ATP concentration: 500 uM
Quick one: just the number, no unit, thanks!

{"Sequence Code": "AAGTTTGATA", "switch fluorescence ratio": 0.981}
{"Sequence Code": "ATTGGGCGCT", "switch fluorescence ratio": 0.993}
{"Sequence Code": "TGGAGGGTGG", "switch fluorescence ratio": 1.01}
{"Sequence Code": "TAGACAAGAT", "switch fluorescence ratio": 1.04}
{"Sequence Code": "TAAGGCGTTA", "switch fluorescence ratio": 0.985}

stdin: Consider the sequence shown here: TCATGGGGTA What is its recorded switch fluorescence ratio?
stdout: 0.962

----------
# System: ATP;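 note: ATP exposure 15 min at 22 °C before imaging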
# Test Details: switch fluorescence ratio, 500 uM ATP over buffer (Cy3 cluster intensity, sum of 5 cycles each) (fold (ratio)); higher = stronger signal-on switching upon ATP binding; sequences stand for … in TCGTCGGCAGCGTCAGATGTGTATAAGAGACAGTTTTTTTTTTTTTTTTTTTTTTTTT…TC
# Run Conditions: aptamer strand: ATP DNA aptamer (quencher-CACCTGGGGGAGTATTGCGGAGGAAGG + anchor), 100 nM annealed; ATP concentration: 500 uM
Would you please tag the item condition met when its switch fluorescence ratio is 1 or above, and condition not met when it is below?

// below: answered sequences
{"Sequence Code": "CATGCATTTT", "Assayed System": "ATP", "Group": "condition met"}
{"Sequence Code": "TTTGGCATGC", "Assayed System": "ATP", "Group": "condition met"}
{"Sequence Code": "GAGTATTTTG", "Assayed System": "ATP", "Group": "condition not met"}

stdin: Dear colleague, could you confirm whether TTAACGGAGA has switch fluorescence ratio at or above 1?
stdout: condition met

stdin: Also TTTTGTAGCA , if possible.
stdout: condition met

stdin: How about this sequence: CGATGTGAGA
stdout: condition met

stdin: Entry to check: TCCGAGGCCA
stdout: condition met

stdin: Note, next up: GACCATGAAA
stdout: condition not met

stdin: Lookup GGTTTCTCGT
stdout: condition not met

stdin: Please do the same for GACGGGCAGG as well.
stdout: condition met

stdin: Also, TGGGGATAGT please.
stdout: condition not met

stdin: Quick one: GATGGCGGAG
stdout: condition met

stdin: Also, CGAGGGCTAG please.
stdout: condition met

stdin: Note, next up: TGAGGGATGC
stdout: condition not met

stdin: What would you report for TTGTGGAAAA ?
stdout: condition not met

stdin: And the next one, ATATATGCGG ?
stdout: condition met

stdin: What would you report for GGGCGCGGTG ?
stdout: condition met

----------
# Test system: ATP;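 note: ATP exposure 15 min at 22 °C before imaging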
# Test Details: switch fluorescence ratio, 500 uM ATP over buffer (Cy3 cluster intensity, sum of 5 cycles each) (fold (ratio)); higher = stronger signal-on switching upon ATP binding; sequences stand for … in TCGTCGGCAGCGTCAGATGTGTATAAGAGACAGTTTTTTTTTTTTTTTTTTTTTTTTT…TC
# Run Conditions: aptamer strand: ATP DNA aptamer (quencher-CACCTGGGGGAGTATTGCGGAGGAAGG + anchor), 100 nM annealed; ATP concentration: 500 uM
Endpoint Label: switch fluorescence ratio
Lab note: record the figure alone, no unit after it.

Take a look at these entries with their results.
{"Sequence Code": "ATAATCGATT", "switch fluorescence ratio": 0.978}
{"Sequence Code": "TTTGCGAACA", "switch fluorescence ratio": 1.06}

stdin: What value of switch fluorescence ratio has been reported for the following sequence? GAGTGCTGGG
stdout: 1.01

stdin: For AGCTACACGT then?
stdout: 1.05

stdin: Would you kindly repeat that for TGCGGATGGT ?
stdout: 0.98

stdin: And what about the sequence GGGGGGCGCT ?
stdout: 0.992

stdin: Next entry: CAGGGCCCTG
stdout: 0.995

----------
The entries below are paired with their reported switch fluorescence ratio.
# Tested on: ATP;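 note: ATP exposure 15 min at 22 °C before imaging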
# Test Details: switch fluorescence ratio, 500 uM ATP over buffer (Cy3 cluster intensity, sum of 5 cycles each) (fold (ratio)); higher = stronger signal-on switching upon ATP binding; sequences stand for … in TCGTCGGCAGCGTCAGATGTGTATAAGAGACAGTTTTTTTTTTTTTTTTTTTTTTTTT…TC
# Run Conditions: aptamer strand: ATP DNA aptamer (quencher-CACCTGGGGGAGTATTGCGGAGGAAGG + anchor), 100 nM annealed; ATP concentration: 500 uM
No unit in the answer, please; the number alone is enough.

{"Sequence Code": "ATTTTTGTGA", "switch fluorescence ratio": 0.98}
{"Sequence Code": "AGTTGCGGTC", "switch fluorescence ratio": 0.952}
{"Sequence Code": "GATTATGCGC", "switch fluorescence ratio": 1.03}
{"Sequence Code": "TTTCTTTGAT", "switch fluorescence ratio": 0.998}
{"Sequence Code": "TTGGGGTGAA", "switch fluorescence ratio": 1.1}
{"Sequence Code": "AATCTGGGGT", "switch fluorescence ratio": 1}
{"Sequence Code": "GTTTGTGC", "switch fluorescence ratio": 0.998}
{"Sequence Code": "CTTTTACCGG", "switch fluorescence ratio": 1.04}
{"Sequence Code": "GACGTTAAAC", "switch fluorescence ratio": 1.56}
{"Sequence Code": "GTTTTTAATT", "switch fluorescence ratio": 0.953}

stdin: For the sequence shown here, TTTCGGGTAT , give the reported switch fluorescence ratio.
stdout: 1.05

stdin: What would you report for AGAGGGGAAT ?
stdout: 1.01

stdin: Lookup GGAATATGTG
stdout: 0.998

stdin: What about AGGGGCGAGC ?
stdout: 0.962

stdin: Same again, this time with TGGCAGGGGG
stdout: 0.945

stdin: Now give it for AGGGGTTTCG too.
stdout: 0.994

stdin: Now the same for TTAGTCTGGG
stdout: 1

stdin: Also, CGCAGGGTGG please.
stdout: 1.05

stdin: Please do the same for TTCCAGTTTT as well.
stdout: 1

stdin: Note, next up: CCTTTTTGTC
stdout: 1.12

stdin: Subsequent entry: TTGTGCTGGA
stdout: 1.04

stdin: Same thing, different sequence: TAAGTTGTGT
stdout: 0.972

stdin: GCCCACGCTG ?
stdout: 1.02

----------
# Test system: ATP;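 note: ATP exposure 15 min at 22 °C before imaging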
# Test Details: switch fluorescence ratio, 500 uM ATP over buffer (Cy3 cluster intensity, sum of 5 cycles each) (fold (ratio)); higher = stronger signal-on switching upon ATP binding; sequences stand for … in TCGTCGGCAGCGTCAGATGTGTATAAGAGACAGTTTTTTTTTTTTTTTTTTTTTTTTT…TC
# Run Conditions: aptamer strand: ATP DNA aptamer (quencher-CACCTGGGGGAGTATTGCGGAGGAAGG + anchor), 100 nM annealed; ATP concentration: 500 uM
Endpoint Label: switch fluorescence ratio
Give the figure by itself; no unit, no explanation.

Some solved entries appear below for comparison.
{"Sequence Code": "TAAGAAAATT", "Assay Result": 0.993}
{"Sequence Code": "ATGATCTGAG", "Assay Result": 1.03}
{"Sequence Code": "TGTTACGTTT", "Assay Result": 0.992}
{"Sequence Code": "TTTCTGCAGC", "Assay Result": 1.24}
{"Sequence Code": "AGGGAGGGCT", "Assay Result": 1.02}

stdin: What value of measured switch fluorescence ratio is listed for TAGGGGGAAA ?
stdout: 1.01

stdin: Continue with CTATCTGCGG
stdout: 1.04

stdin: Next up: TTTAGACGGG
stdout: 0.965

stdin: One more sequence: TAGGGATTCT
stdout: 0.995

stdin: Likewise for AGGGGGTACG ?
stdout: 1.01

stdin: Next: TCGGACTGGG
stdout: 1.01

stdin: Queued: TGTCATAATG
stdout: 0.97

stdin: Next sequence: GCGGTGGGGA
stdout: 1.03

stdin: Would you kindly repeat that for CTATGCGGGA ?
stdout: 1.01

stdin: What do we get for TTGTGGGGG ?
stdout: 1

stdin: Another: AGCAAATGGT
stdout: 1.07

stdin: Let us now turn to GGGATTATAT
stdout: 1.02

stdin: Also need ATATGACGGT , thanks.
stdout: 0.98

stdin: Next sequence up: AATTATACGT
stdout: 1.05

stdin: Follow-up entry: GATTGTAATC
stdout: 0.99

stdin: Consider next the sequence TAGTGGATGG in the same way.
stdout: 1

stdin: // query: GATGAAATGG
stdout: 1.02

stdin: And the next one, TTGCAGCTTA ?
stdout: 1.05

stdin: Check AGTGGGGGG too.
stdout: 1.01

stdin: What do we get for GAGCTTGCGA ?
stdout: 1.03

Ref: the supplement of paper PMC10126150
